- Test system: K-562 leukemia
- Test protocol: NCI-60 one-dose screen, 48 h
- Measurement context: 10 µM unless noted
- Procedure: Cells are grown in 96 well plates and exposed to the test compound for 48 hours. Compounds are tested at a single concentration, which is 10^-5 M for most compounds. The reported endpoint is percent growth (GI% or GIPRCNT), where numbers from 0 - 100% represent growth inhibition, and numbers from -100% - 0 represent cell death. For example, a value of 40 represents 60% growth inhibition. A value of 0 means no net growth occurred over the course of the experiment. […]
About 83,000 compounds went through this panel and 20% of them were active in at least one assay; those are over-represented in the sample as a whole. The source made the active and inactive calls. How the source made its calls: active means growth percent below 10; inactive means the rest.
Return exactly one item of active, inactive

Please share the test call associated with O=C(/C=C/c1ccccc1Cl)Nc1ncc(Cc2cc(Cl)ccc2Cl)s1 .
inactive

I'd appreciate the recorded outcome for COc1ccc(OC)c(CCn2cncc2-c2c[nH]c3ccc(Cl)cc23)c1 from this test.
inactive

Outcome? N#Cc1c(-c2cccs2)cc(-c2cnccn2)nc1SCC(=O)N/N=C/c1ccc(Cl)cc1
inactive

How was Brc1ccc2[nH]cc(-c3nn4cc(-c5nccs5)nc4s3)c2c1 classified in this test?
inactive

Please let me know the test result on file for O=S(=O)(NCCCNc1nccc(-c2[nH]c(-c3ccccc3)nc2-c2ccc(F)c(O)c2)n1)c1cccc2ccccc12 .
inactive

What was the test verdict on COCCOc1ccc2ncc(C#Cc3cncc(C(=O)Nc4ccc(CN5CCN(C)CC5)c(C(F)(F)F)c4)c3)n2n1 ?
active

Just curious, what result did COc1cc(C(=O)c2cc(C(C)=O)c3ccc(C)cn23)cc(OC)c1OC get here?
inactive

Tell me the assay call for CCOC(=O)c1c(NC(=O)c2cccc(C(F)(F)F)c2)sc2c3c(ccc12)OCN(C)C3 please.
active

Status in this test for N#Cc1cccc(-c2cc(-c3ccc4c(c3)OCCO4)[nH]n2)c1 ?
inactive

Hi, do you know how O=C(NCCNc1cc(-c2cn(-c3ccccc3)nc2-c2cccc(O)c2)ccn1)Nc1cc(C(F)(F)F)cc(C(F)(F)F)c1 came out in this test?
inactive

For CCOC(=O)c1c(NC(=O)c2ccc(C(F)(F)F)cc2)sc2c3c(ccc12)OCN(C)C3 , which call appears in the assay record?
active

Query: recorded result category for COc1ccc(OC)c(NC(=O)CCCCCCNC(=O)C(O)(O)C(F)(F)F)c1 in this test
inactive

Called result for NCCNC(=O)c1cccc(COc2ccccc2NC(=O)c2cc(Cl)c(Cl)[nH]2)c1
active

I would be grateful if you could indicate the recorded call for O=C(Nc1ccc(Cl)c(C(F)(F)F)c1)Nc1ccc2oc(=O)ccc2c1 .
inactive

Per the assay record, what outcome was assigned to Cc1ccc2c(n1)C(=O)C(Cl)=C(Nc1cccc(C(=O)OC(C)(C)C)c1)C2=O ?
active

Hey, what did the test say about CN1CCN(c2ccc(Nc3nc(NCCCNS(=O)(=O)c4cccc(F)c4)c4sccc4n3)cc2)CC1 ?
inactive

Test call for this compound, please: C#C[C@]1(O)CC[C@H]2[C@@H]3CC=C4c5sc(Nc6cccc(F)c6)nc5CC[C@]4(C)[C@H]3CC[C@@]21C
active

Name the outcome recorded for COC(=O)CCCNCCCn1ccc2cc(NCc3cccc(-c4ccccc4)c3C)ccc21 in the assay.
active

Hi, sorry to bother you, what did the test record for CSc1ccc(/C(=N/N=C(N)N)c2ccc(F)cc2)cc1 ?
active
